Cited source: the NIST ThermoML archive (doi:10.1021/je9006037)

Details: 298.15 K; 101.33 kPa; Liquid
observation-type: mass density (kg/m3)

molecule	obs-value
CCCO	799.56
CC(C)O	780.89
CCO	785.1
CO	786.49
CCn1cc[n+](C)c1.O=S(=O)([O-])C(F)(F)F [1-ethyl-3-methylimidazolium trifluoromethanesulfonate]	1383.58
